# System: Canis familiaris
# TEST NAME: AUC (Area under curve) was determined after intravenous administration at a dose 1 mg/kg in dog
# Type: ADME, organism-based, Canis lupus familiaris, Plasma
# Design: dose 1 mg/kg, route intravenous
# RUN PARAMETERS: in vivo

>  <MOLECULE>
CC(C)(C)OC(=O)N[C@@H](C(=O)N1CCC[C@H]1C(=O)NCC1CCC(N)CC1)C(C1CCCCC1)C1CCCCC1 (stereo partly specified)

>  <AUC, µM·h>
90

$$$$

* * *

# MEASURED ON: Coagulation factor X (Homo sapiens, UniProt P00742)
# Sequence (P00742 41-179 limits assumed): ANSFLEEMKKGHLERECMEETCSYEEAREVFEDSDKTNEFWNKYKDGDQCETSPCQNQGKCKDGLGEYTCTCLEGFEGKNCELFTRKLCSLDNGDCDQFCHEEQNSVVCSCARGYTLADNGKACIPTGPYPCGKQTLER
# Sequence (P00742 235-488 limits assumed): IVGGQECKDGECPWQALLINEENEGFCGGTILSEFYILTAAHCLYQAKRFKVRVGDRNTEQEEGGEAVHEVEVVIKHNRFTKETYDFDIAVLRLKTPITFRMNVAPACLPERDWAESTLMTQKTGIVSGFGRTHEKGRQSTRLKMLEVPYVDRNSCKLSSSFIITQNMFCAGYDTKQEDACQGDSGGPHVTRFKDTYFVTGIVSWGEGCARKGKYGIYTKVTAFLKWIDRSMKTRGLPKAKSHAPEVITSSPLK

>  <COMPOUND>
NC1CCC(CNC(=O)[C@@H]2CCCN2C(=O)[C@H](N)C(C2CCCCC2)C2CCCCC2)CC1 (stereo partly specified)

>  <Ki>
95 µM

$$$$

* * *

# TEST NAME: The half life period in rat.
# Type: ADME, organism-based
# RUN PARAMETERS: in vivo
As shown below, each of these compounds has a reported half-life value.

>  <COMPOUND>
CC(C)(C)OC(=O)N[C@@H](C(=O)N1CCC[C@H]1C(=O)NCC1CCC(N)CC1)C(C1CCCCC1)C1CCCCC1 (some centres not stated)

>  <UNITS SYMBOL>
h

>  <half-life>
4.15

$$$$
>  <COMPOUND>
NC1CCC(CNC(=O)[C@@H]2CCCN2C(=O)[C@H](N)C(C2CCCCC2)C2CCCCC2)CC1 (some centres not stated)

>  <UNITS SYMBOL>
h

>  <half-life>
0.2

$$$$

* * *

# MEASURED ON: Plasma kallikrein (Homo sapiens, UniProt P03952)
# Sequence (P03952 20-390 limits assumed): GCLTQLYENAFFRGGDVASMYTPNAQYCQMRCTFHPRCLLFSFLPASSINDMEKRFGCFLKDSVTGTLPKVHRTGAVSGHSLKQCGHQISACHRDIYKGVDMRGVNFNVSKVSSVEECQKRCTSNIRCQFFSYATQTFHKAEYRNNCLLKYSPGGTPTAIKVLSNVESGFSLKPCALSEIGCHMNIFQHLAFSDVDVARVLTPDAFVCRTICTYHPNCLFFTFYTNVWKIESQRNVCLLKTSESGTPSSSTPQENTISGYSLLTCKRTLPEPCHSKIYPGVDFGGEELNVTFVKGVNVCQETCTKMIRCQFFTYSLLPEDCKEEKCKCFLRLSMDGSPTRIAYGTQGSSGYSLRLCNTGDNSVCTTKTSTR
# Sequence (P03952 391-638 limits assumed): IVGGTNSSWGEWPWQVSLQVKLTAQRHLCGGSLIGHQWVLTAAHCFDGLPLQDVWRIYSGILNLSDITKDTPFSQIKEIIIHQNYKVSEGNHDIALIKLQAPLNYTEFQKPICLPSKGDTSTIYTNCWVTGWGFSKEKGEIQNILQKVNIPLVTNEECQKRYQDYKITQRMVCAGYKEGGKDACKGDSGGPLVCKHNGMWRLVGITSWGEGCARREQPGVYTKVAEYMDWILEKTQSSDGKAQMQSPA
# TEST NAME: Inhibitory activity against human serine protease (plasma Kallikrein) (89000*)

>  <MOLECULE>
NC1CCC(CNC(=O)[C@@H]2CCCN2C(=O)[C@H](N)C(C2CCCCC2)C2CCCCC2)CC1 (stereo partly specified)

>  <Ki [µM]>
5

$$$$

* * *

As shown below, each of these compounds has a reported fraction unbound value.
# TEST NAME: The fraction of free compound available in plasma of rat
# Type: ADME, cell-free
# RUN PARAMETERS: read-out: Funbound_plasma

>  <COMPOUND>
NC1CCC(CNC(=O)[C@@H]2CCCN2C(=O)[C@H](N)C(C2CCCCC2)C2CCCCC2)CC1 (some centres not stated)

>  <OPERATOR>
=

>  <fraction unbound>
0.06

$$$$
>  <COMPOUND>
CC(C)(C)OC(=O)N[C@@H](C(=O)N1CCC[C@H]1C(=O)NCC1CCC(N)CC1)C(C1CCCCC1)C1CCCCC1 (some centres not stated)

>  <OPERATOR>
<

>  <fraction unbound>
0.01

$$$$

* * *

# TEST NAME: Bioavailability in dog
# Assay type: ADME, organism-based, Canis lupus familiaris
# RUN PARAMETERS: in vivo
RESULT TYPE: bioavailability (%)

>  <COMPOUND>
CC(C)(C)OC(=O)N[C@@H](C(=O)N1CCC[C@H]1C(=O)NCC1CCC(N)CC1)C(C1CCCCC1)C1CCCCC1 (stereo partly specified)

>  <RESULT TYPE>
bioavailability

>  <UNITS SYMBOL>
%

>  <QUANTITATIVE READOUT>
90

$$$$

* * *

# MEASURED ON: Prothrombin (Homo sapiens, UniProt P00734)
As shown below, each of these compounds has a reported Ki value.
RESULT TYPE: Ki (nM)

>  <COMPOUND>
NC1CCC(CNC(=O)[C@@H]2CCCN2C(=O)[C@H](N)C(C2CCCCC2)C2CCCCC2)CC1 (stereo partly drawn)

>  <QUANTITATIVE READOUT>
0.056

$$$$
>  <COMPOUND>
NC1CCC(CNC(=O)[C@@H]2CCCN2C(=O)[C@@H](N)C(C2CCCCC2)C2CCCCC2)CC1 (stereo partly drawn)

>  <QUANTITATIVE READOUT>
440

$$$$
>  <COMPOUND>
CC(C)(C)OC(=O)N[C@@H](C(=O)N1CCC[C@H]1C(=O)NCC1CCC(N)CC1)C(C1CCCCC1)C1CCCCC1 (stereo partly drawn)

>  <QUANTITATIVE READOUT>
0.1

$$$$

* * *

# TEST NAME: The plasma clearance in rat.
# Format: ADME, organism-based
# RUN PARAMETERS: read-out: CI
RESULT TYPE: clearance (mL/min/kg)

>  <COMPOUND>
CC(C)(C)OC(=O)N[C@@H](C(=O)N1CCC[C@H]1C(=O)NCC1CCC(N)CC1)C(C1CCCCC1)C1CCCCC1 (some centres not stated)

>  <QUANTITATIVE READOUT>
17.9

$$$$
>  <COMPOUND>
NC1CCC(CNC(=O)[C@@H]2CCCN2C(=O)[C@H](N)C(C2CCCCC2)C2CCCCC2)CC1 (some centres not stated)

>  <QUANTITATIVE READOUT>
6

$$$$

* * *

# Tested on: Canis familiaris
# TEST NAME: AUC (Area under curve) was determined after peroral administration at a dose 5 mg/kg in dog
# Assay type: ADME, organism-based, Canis lupus familiaris, Plasma
# Parameters: dose 5 mg/kg, route oral
# RUN PARAMETERS: in vivo, po

>  <MOLECULE>
CC(C)(C)OC(=O)N[C@@H](C(=O)N1CCC[C@H]1C(=O)NCC1CCC(N)CC1)C(C1CCCCC1)C1CCCCC1 (stereo partly specified)

>  <AUC [µM·h]>
45.3

$$$$

* * *

# MEASURED ON: Tissue-type plasminogen activator (Homo sapiens, UniProt P00750)
# Sequence (P00750 whole entry): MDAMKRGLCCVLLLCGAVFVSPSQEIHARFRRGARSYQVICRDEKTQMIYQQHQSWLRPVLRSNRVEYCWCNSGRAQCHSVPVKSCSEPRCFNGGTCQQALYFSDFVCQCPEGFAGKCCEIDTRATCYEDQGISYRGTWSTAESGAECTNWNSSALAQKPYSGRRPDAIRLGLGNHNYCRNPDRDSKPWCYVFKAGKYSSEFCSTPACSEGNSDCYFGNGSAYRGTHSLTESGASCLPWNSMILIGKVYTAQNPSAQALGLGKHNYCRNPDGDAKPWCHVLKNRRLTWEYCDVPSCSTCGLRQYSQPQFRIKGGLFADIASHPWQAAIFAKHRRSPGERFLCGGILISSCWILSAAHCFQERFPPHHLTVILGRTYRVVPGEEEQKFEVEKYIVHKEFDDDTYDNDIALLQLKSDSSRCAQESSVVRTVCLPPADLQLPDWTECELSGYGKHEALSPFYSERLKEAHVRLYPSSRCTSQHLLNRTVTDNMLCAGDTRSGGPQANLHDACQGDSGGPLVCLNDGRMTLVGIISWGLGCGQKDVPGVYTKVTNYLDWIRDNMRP
RESULT TYPE: Ki (µM)

>  <COMPOUND>
NC1CCC(CNC(=O)[C@@H]2CCCN2C(=O)[C@H](N)C(C2CCCCC2)C2CCCCC2)CC1 (stereo partly specified)

>  <RESULT TYPE>
Ki

>  <QUANTITATIVE READOUT>
137

$$$$
